# System tested: T1, WASP GBD (GTPase Binding Domain of rat N-WASP, residues 196-274) (rat, UniProt O08816 196-274)
# T1 construct: range 196-274; also called rat N-WASP GBD
# T1 sequence (O08816 196-274 limits assumed): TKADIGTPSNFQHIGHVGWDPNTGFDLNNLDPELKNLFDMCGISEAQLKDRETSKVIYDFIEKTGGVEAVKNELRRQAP
# Test: method not described; footnote: affinities reported as measured in trans
Experimental readout: Kd (nM)

binder="LVGALMHVMQKRSRAIHSSDEGEDQAGDEDED (also called GBD ligand) [GBD lig.]" measured_number=1000

Origin of values: patent US20110008829A1
